Attribution: patent US6284769A

system.tested: δ opioid receptor (Homo sapiens)
experiment.summary: [35S]GTPγS agonist/antagonist assay, δ-CHO membrane
protocol.conditions: [35S]GTPγS, 60 min at 25° C.; SEM in brackets
observed.property: EC50

May I ask what EC50 has been recorded for CN1CC[C@]23c4c5ccc(O)c4O[C@H]2c2n[nH]cc2C[C@@]3(O)[C@H]1C5 [Example 1] ?
25 nM

====

system.tested: δ opioid receptor (Homo sapiens, UniProt P41143)
Sequence (P41143 whole entry): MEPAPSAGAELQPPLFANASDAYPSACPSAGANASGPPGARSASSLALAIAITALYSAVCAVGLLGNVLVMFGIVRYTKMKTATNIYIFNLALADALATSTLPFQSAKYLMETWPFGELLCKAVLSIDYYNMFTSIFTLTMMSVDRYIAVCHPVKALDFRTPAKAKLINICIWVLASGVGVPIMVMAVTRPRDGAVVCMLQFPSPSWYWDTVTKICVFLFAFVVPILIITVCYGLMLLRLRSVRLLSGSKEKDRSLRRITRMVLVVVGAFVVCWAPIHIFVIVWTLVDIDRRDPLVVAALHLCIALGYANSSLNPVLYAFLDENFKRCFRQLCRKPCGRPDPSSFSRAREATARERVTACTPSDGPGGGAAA
observed.property: pKi
Bear in mind: pKi is minus log10 of a mol/L concentration; give just that figure.

May I ask what pKi has been recorded for `CN1CC[C@]23c4c5ccc(O)c4O[C@H]2c2n[nH]cc2C[C@@]3(O)[C@H]1C5` ?
7.72

====

observed.property: Ki (nM)
Give just the numeric value; nM need not be written.

Lookup: Ki / UniProtKB P41145 / `CN1CC[C@]23c4c5ccc(O)c4O[C@H]2c2n[nH]cc2C[C@@]3(O)[C@H]1C5`
Sequence (P41145 whole entry): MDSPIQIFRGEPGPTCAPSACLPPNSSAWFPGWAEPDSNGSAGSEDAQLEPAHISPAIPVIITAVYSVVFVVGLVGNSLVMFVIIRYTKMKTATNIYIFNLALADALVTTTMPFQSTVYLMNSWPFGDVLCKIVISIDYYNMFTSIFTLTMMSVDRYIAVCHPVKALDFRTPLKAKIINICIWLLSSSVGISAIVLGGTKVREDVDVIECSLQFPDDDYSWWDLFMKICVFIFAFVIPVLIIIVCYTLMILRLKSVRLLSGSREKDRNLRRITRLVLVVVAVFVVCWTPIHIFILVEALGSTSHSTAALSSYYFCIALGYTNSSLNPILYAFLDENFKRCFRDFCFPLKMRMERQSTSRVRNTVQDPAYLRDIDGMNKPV
12.3
